- target-desc: CB1 receptor (Mus musculus, UniProt P47746)
- Sequence (P47746 whole entry): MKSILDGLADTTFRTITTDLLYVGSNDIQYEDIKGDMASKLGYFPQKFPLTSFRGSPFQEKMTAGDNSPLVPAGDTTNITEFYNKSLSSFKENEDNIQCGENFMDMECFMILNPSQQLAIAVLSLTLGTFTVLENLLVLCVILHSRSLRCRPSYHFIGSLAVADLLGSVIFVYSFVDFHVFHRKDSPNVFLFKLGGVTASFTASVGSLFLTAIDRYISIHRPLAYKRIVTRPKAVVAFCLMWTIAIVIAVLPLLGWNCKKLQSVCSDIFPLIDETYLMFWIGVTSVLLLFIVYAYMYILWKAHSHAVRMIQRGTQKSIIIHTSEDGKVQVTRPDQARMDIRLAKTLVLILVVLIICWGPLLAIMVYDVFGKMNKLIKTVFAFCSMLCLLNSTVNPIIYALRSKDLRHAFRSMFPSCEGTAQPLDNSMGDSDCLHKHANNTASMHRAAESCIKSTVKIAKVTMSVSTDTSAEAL
- test-method-notes: THC-induced cannabinoid tetrad (body temperature, locomotor activity, catalepsy, analgesia)
- Format: in vivo, mice
- Parameters: tissue Charles River Laboratories (France) (animals); host or cells: living mice, whole animal
- measurement-parameters: mice; THC 10 mg/kg; compounds 6 mg/kg 15-30 min before THC
# % Inhibition temperature decrease listing for each entry below

Use the examples below as a reference point.
compound	reported-result
CC(=O)[C@H]1CCC2C3CC=C4CC(N=[N+]=[N-])CC[C@]4(C)C3CC[C@@]21C (stereo partly drawn)	34%, P < 0.05
CC(=O)[C@@]1(Cc2ccccc2)CCC2C3CC=C4C[C@@H](O)CC[C@]4(C)C3CC[C@@]21C (stereo partly drawn)	53%, P < 0.003
C[C@H](O)[C@H]1CCC2C3CC=C4C[C@@H](O)CC[C@]4(C)C3CC[C@@]21C (stereo partly drawn)	34%, P < 0.04
CO[C@H]1CC[C@@]2(C)C(=CCC3C2CC[C@@]2(C)C3CC[C@]2(C)C(C)=O)C1 (stereo partly drawn)	33%, P < 0.01
CNC(C)[C@H]1CC[C@H]2[C@@H]3CC=C4C[C@@H](O)CC[C@]4(C)[C@H]3CC[C@]12C (stereo partly drawn)	28%, P < 0.05

Record CO[C@H]1CC[C@@]2(C)C(=CCC3C2CC[C@@]2(C)C3CC[C@]2(Cc2ccccc2)C(C)=O)C1 (stereo partly drawn) . Reported % Inhibition temperature decrease: 8%, P > 0.49
